Tested on: NCI-H226
Experiment: NCI cytotoxicity screen (SRB)
Format: cell-based, human
Details: NCI-H226; subsequent test date
Metric name: IC50 (µM)
Write it as a number; the unit µM goes unstated.

[ask] Given the molecule CN(C)CCNC(=O)c1nc(NC(=O)c2nc(NC(=O)c3nc(NC(=O)c4ccc(N(CCCl)CCCl)cc4)cn3C)cn2C)cn1C [Compound 7] , what is its reported IC50?
[reply] 5.54

[ask] Entry to check: CN(C)CCNC(=O)c1nc(NC(=O)c2nc(NC(=O)c3ccc(N(CCCl)CCCl)cc3)cn2C)cn1C [Compound 6]
[reply] 61.3

* * *

System: EKVX
Assay: NCI cytotoxicity screen (SRB)
Type: cell-based, human
Conditions: EKVX; subsequent test date
Metric name: pIC50
pIC50 is defined as minus the log10 of a concentration measured in mol/L.

[ask] Given the molecule CN(C)CCNC(=O)c1nc(NC(=O)c2nc(NC(=O)c3nc(NC(=O)c4ccc(N(CCCl)CCCl)cc4)cn3C)cn2C)cn1C , what is its reported pIC50?
[reply] 5.77

[ask] Entry to check: CN(C)CCNC(=O)c1nc(NC(=O)c2nc(NC(=O)c3ccc(N(CCCl)CCCl)cc3)cn2C)cn1C
[reply] 4.42
